Source: the supplement of paper PMC12042874

Assay: amyloid nucleation score (Sup35N fusion, yeast selection) (log enrichment); library NNK2; higher = more nucleation; inactive = no reads after selection;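 further: zero at mode of non-aggregating sequences after 7 days selection at 30°C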
measured endpoint: amyloid nucleation score

> print(dat)
          sequence.text    result
1  LRREGTYIRPCKDMYFGDSC  inactive
2             SYFMRDSTN  inactive
3  VVAKAGRSKFSGCSRATAGG     0.609

====

Test: amyloid nucleation score (Sup35N fusion, yeast selection) (log enrichment); library NNK2; higher = more nucleation; inactive = no reads after selection
The reader will find reported amyloid nucleation score values listed item by item below.

> print(dat)
          sequence.text  result
1  EYMTMDELDWWSRQCFGWAQ    1.64
2  MSSIDFSFCTSSLRTYSIVR   0.155
3  PSYFRNRIRLSRVGTNGYTR  -0.693

The reported value for ISYVCGPFICVLNLFYQI in terms of amyloid nucleation score is 6.04

====

Experiment: amyloid nucleation score (Sup35N fusion, yeast selection) (log enrichment); library NNK3; higher = more nucleation; inactive = no reads after selection
measured endpoint: amyloid nucleation score

These solved cases illustrate the format of a correct answer.
> print(dat)
               substance    result
 1  DFTCDPSTLNSRRLSEDLIR  inactive
 2           CNYNGLESILR  inactive
 3             YINLFGKWA      1.53
 4                RSTWEQ  inactive
 5               HRKMHDT  inactive
 6  TRMSGRHLCVITACLLTLNC     0.576
 7  TGMNNFMKCLGYMSAHVRLI  inactive
 8              ICWKRCHG  inactive
 9          LVVRNVEVPIHR  inactive
10    LYVLSGVGICIRGDRLSC     0.535

The reported value for IWCSRAGVRWVEMNVEQVYW in terms of amyloid nucleation score is inactive

The reported value for HWSHNLQFIFFYSYVGLANE in terms of amyloid nucleation score is 1.96

The reported value for GSGTGNALLQLGLTSIFTFS in terms of amyloid nucleation score is inactive

The reported value for HRMRLSCCTAFDTLVMIPIS in terms of amyloid nucleation score is 0.482

The reported value for HHRLSGEMSSWVATATCWVG in terms of amyloid nucleation score is inactive

The reported value for RISINGFNNLNYLLS in terms of amyloid nucleation score is 1.39

The reported value for PLRSTKSIIVLMDEMRLIAN in terms of amyloid nucleation score is inactive

The reported value for DVDVPT in terms of amyloid nucleation score is inactive

The reported value for HLNLTHNWNVYGKDLNGQFF in terms of amyloid nucleation score is 2.13

The reported value for HYSLSQDISDSNGLQLLFLL in terms of amyloid nucleation score is 2.1

The reported value for LSVCVIEHAWVFCRTPVQAF in terms of amyloid nucleation score is inactive

The reported value for FMYMVNMVNVTVN in terms of amyloid nucleation score is inactive

====

Test: amyloid nucleation score (Sup35N fusion, yeast selection) (log enrichment); library NNK2; higher = more nucleation; inactive = no reads after selection
Use True when the recorded amyloid nucleation score is no lower than 0.5; use False when it is lower.

> print(dat)
              substance  group
1         NKVSEFYDGVHFC  False
2  IPFRFDMSRSFISSTFTVRI  False
3  PRMSTMTTKCGKLKNGKYRR   True
4  GASPWPHTTMIFISILSNCV   True
5              ICILDYND  False

Problem: amyloid nucleation score >= 0.5 for PFLQLCREAIFCLSHDGMLK ?
Solution: False

Problem: amyloid nucleation score >= 0.5 for SKSAPC ?
Solution: False

Problem: amyloid nucleation score >= 0.5 for FYPVFKSMLVMAGVTRHLAR ?
Solution: False

Problem: amyloid nucleation score >= 0.5 for HGMYKTG ?
Solution: True

Problem: amyloid nucleation score >= 0.5 for CLQCYYRMSDNCFHSTA ?
Solution: True

Problem: amyloid nucleation score >= 0.5 for VIPSSILLEGYVLLYACYLP ?
Solution: False

Problem: amyloid nucleation score >= 0.5 for LREGCVTLLS ?
Solution: False
